Target: Human immunodeficiency virus type 1 reverse transcriptase (Human immunodeficiency virus 1, UniProt Q72547)
Test: Inhibition of HIV1 reverse transcriptase p66/p51 polymerase using PPT57 DNA/Cy5-labeled PPT24 as template/primer preincubated for 10 mins followed by dNTP addition measured after 5 mins by bromophenol blue staining based phosphor imaging analysis
pIC50: −log10 of the molar value.
Metric name: pIC50

What measured pIC50 goes with "O=C(O)c1nc(-c2ccc(Cl)cc2)[nH]c(=O)c1O" ? 5.35

What measured pIC50 goes with "O=C(O)c1nc(CNc2ncnc3ncc(Br)cc23)nc(O)c1O" ? 4.31

What value of measured pIC50 is listed for "O=C(O)c1nc(-c2cccc(Br)c2)nc(O)c1O" ? 4.85

I have this compound here, "COc1ccc(-c2cnc3ncnc(NCc4nc(O)c(O)c(C(=O)O)n4)c3c2)cc1" , and I need its recorded pIC50. 4.60

# pIC50 lookup, item "O=C(O)c1nc(-c2cc(C(F)(F)F)cc(C(F)(F)F)c2)nc(O)c1O" 4.70

# lookup: pIC50 of "COc1ccc(-c2cc3c(NCc4nc(O)c(O)c(C(=O)O)n4)ncnc3nc2SC)cc1" 4.21

[I] O=C(O)c1nc(CNc2ncnc3ncccc23)nc(O)c1O
[II] O=C(O)c1nc(-c2cccc(Cl)c2)nc(O)c1O
[III] Cc1ccc(-c2nc(O)c(O)c(C(=O)O)n2)cc1
// ranking: key=pIC50, reverse=True Reply: labels, ordered per the request. III, II, I

----------
Molecular target: Human immunodeficiency virus type 1 reverse transcriptase (Human immunodeficiency virus 1)
Experiment: Inhibition of HIV1 reverse transcriptase p66/p51 assessed as freezing of template-primer-enzyme complex at pretranslocated stage at 100 uM using 5'-radiolabeled PBS36c DNA/5'-TTCTGACTAAAAGGGTCTGAGGGAT-3 as template/primer preincubated for 10 mins followed by Fe2+ addition by site-specific foot printing assay
Activity calls are given as the source filed them. No cut-off for these calls is given here.
Select the correct class. Options are active, inactive and nothing else.

Example cases with answers are listed next.
Please let me know the test result on file for "O=C(O)c1nc(-c2cc(C(F)(F)F)cc(C(F)(F)F)c2)nc(O)c1O" . inactive

Given "COc1ccc(-c2cnc3ncnc(NCc4nc(O)c(O)c(C(=O)O)n4)c3c2)cc1" , state the outcome it received in this test. inactive

Lab log entry: "O=C(O)c1nc(CNc2ncnc3ncc(Br)cc23)nc(O)c1O" — outcome as called in the assay? inactive

Status in this test for "O=C(O)c1nc(-c2cccc(Br)c2)nc(O)c1O" ? active

Write down the call the test reported for this compound. Item: "O=P(O)(O)C(Nc1cccc(Br)c1)P(=O)(O)O" active

Consider the record given below.
# outcome recorded in this test, key = "O=C(Nc1ccc(-c2cccc(NC(P(=O)(O)O)P(=O)(O)O)c2)cc1)C1CC1" inactive
